Source listed as patent US20180303807A1.

- TARGET_OR_TEST_SYSTEM: AR (Homo sapiens)
- Construct: expressed in transfected cells; host or cells: CV1 cells
- Sequence (P10275 whole entry): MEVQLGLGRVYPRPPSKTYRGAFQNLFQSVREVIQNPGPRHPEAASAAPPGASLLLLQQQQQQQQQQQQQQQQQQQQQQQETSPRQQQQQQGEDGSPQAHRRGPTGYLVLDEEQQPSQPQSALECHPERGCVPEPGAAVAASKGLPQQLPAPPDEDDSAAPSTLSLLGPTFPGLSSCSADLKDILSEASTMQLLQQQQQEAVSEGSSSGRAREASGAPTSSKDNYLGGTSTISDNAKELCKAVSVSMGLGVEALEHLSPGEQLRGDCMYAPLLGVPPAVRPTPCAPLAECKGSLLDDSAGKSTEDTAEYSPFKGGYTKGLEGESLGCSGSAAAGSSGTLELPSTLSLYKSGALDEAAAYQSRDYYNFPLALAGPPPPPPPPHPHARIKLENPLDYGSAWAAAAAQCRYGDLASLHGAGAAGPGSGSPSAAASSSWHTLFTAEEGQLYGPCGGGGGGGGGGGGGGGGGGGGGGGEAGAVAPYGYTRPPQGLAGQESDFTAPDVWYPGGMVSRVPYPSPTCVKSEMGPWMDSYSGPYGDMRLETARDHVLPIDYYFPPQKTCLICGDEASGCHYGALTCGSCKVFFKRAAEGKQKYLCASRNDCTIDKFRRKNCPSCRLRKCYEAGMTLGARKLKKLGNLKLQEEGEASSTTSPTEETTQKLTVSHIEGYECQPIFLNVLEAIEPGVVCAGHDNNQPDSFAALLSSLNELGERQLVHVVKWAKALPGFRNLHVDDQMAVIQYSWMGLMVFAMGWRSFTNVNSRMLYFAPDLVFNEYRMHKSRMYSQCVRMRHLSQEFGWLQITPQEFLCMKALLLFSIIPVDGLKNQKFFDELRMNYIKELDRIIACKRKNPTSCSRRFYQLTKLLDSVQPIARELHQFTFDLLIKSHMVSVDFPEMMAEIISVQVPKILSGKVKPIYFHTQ
- ASSAY_INFO: Reporter gene assay, AR transcriptional (MMTV-Luc) in CV1 cells
- Assay type: cell-based
- MEASUREMENT_CONDITIONS: pcDNA-AR + MMTV-Luc, 0.1 nM R1881 plus test compound, 24 hrs, read-out: B1 = AR transcriptional IC50 (μM) in CV1 cells
PROPERTY_NAME: log10 IC50 (log10 of the value in µM)
The figures below represent log10 of IC50, where IC50 is stated in µM.

// solved cases for log10 IC50 follow
[
  {
    "MOLECULE": "CC1(C)CC(=O)C2=C(C1)Nc1ccc3cn[nH]c3c1C2c1ccc(Cl)s1 (stereo not shown) [Compound A108]",
    "PROPERTY_NAME": "log10 IC50",
    "MEASUREMENT": 0.08
  },
  {
    "MOLECULE": "CC1(C)CC(=O)C2=C(C1)Nc1ccc3ccccc3c1C2c1cccc(C(F)(F)F)c1 (stereo not shown) [Compound A9]",
    "PROPERTY_NAME": "log10 IC50",
    "MEASUREMENT": 0.74
  },
  {
    "MOLECULE": "CC1(C)CC(=O)C2=C(C1)Nc1ccc3ncccc3c1C2c1ccc(F)cc1 (stereo not shown) [Compound A40]",
    "PROPERTY_NAME": "log10 IC50",
    "MEASUREMENT": 0.23
  },
  {
    "MOLECULE": "CC1(C)CC(=O)C2=C(C1)Nc1ccc3ncccc3c1C2c1csc([N+](=O)[O-])c1 (stereo not shown) [Compound A60]",
    "PROPERTY_NAME": "log10 IC50",
    "MEASUREMENT": 0.23
  },
  {
    "MOLECULE": "CC1(C)CC(=O)C2=C(C1)Nc1ccc3ncccc3c1C2c1ccc(F)c(Br)c1 (stereo not shown) [Compound A74]",
    "PROPERTY_NAME": "log10 IC50",
    "MEASUREMENT": 0.93
  }
]

Quick one: log10 IC50 for Cc1ccc(C2C3=C(CC(C)(C)CC3=O)Nc3ccc4ncccc4c32)nc1 (stereo not shown) [Compound A35] ?
1.76

Requested field: log10 IC50. Item: CC1(C)CC(=O)C2=C(C1)Nc1ccc3ncccc3c1C2c1ccc(C#N)cn1 (stereo not shown) [Compound A56]
0.08
